Study target: T1, BMPRIa receptor-Fc fusion (UniProt P36894 24-152, limits assumed)
T1 construct: also called ALK-3
T1 sequence (P36894 24-152 limits assumed): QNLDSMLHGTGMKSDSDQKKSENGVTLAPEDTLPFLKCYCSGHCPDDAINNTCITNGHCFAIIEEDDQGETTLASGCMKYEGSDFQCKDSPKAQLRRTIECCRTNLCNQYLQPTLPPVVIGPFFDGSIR
Procedure details: ELISA-like plate assay, captured BMP-7 from conditioned media, receptor-Fc detection
Listed next: entries and their corresponding BMPRIa binding (relative to wild type = 1.0).

Past entries and their recorded results:
- Binder: "BMP-7 variant F93E (ligand, In conditioned media; numbering on mature BMP-7) STGGKQRSQNRSKTPKNQEALRMASVAENSSSDQRQACKKHELYVSFRDLGWQDWIIAPEGYAAYYCEGECAFPLNSYMNATNHAIVQTLVHEINPETVPKPCCAPTQLNAISVLYFDDSSNVILKKYRNMVVRACGCH"
  Endpoint result: "0.83 relative to wild type"
- Binder: "BMP-7 variant L21N (ligand, In conditioned media; numbering on mature BMP-7) STGGKQRSQNRSKTPKNQEANRMASVAENSSSDQRQACKKHELYVSFRDLGWQDWIIAPEGYAAYYCEGECAFPLNSYMNATNHAIVQTLVHFINPETVPKPCCAPTQLNAISVLYFDDSSNVILKKYRNMVVRACGCH"
  Endpoint result: "1.57 relative to wild type"
- Binder: "BMP-7 variant R134K (ligand, In conditioned media; numbering on mature BMP-7) STGGKQRSQNRSKTPKNQEALRMASVAENSSSDQRQACKKHELYVSFRDLGWQDWIIAPEGYAAYYCEGECAFPLNSYMNATNHAIVQTLVHFINPETVPKPCCAPTQLNAISVLYFDDSSNVILKKYRNMVVKACGCH"
  Endpoint result: "1.05 relative to wild type"
- Binder: "BMP-7 variant F117S (ligand, In conditioned media; numbering on mature BMP-7) STGGKQRSQNRSKTPKNQEALRMASVAENSSSDQRQACKKHELYVSFRDLGWQDWIIAPEGYAAYYCEGECAFPLNSYMNATNHAIVQTLVHFINPETVPKPCCAPTQLNAISVLYSDDSSNVILKKYRNMVVRACGCH"
  Endpoint result: "0.15 relative to wild type"
- Binder: "BMP-7 variant I57L (ligand, In conditioned media; numbering on mature BMP-7) STGGKQRSQNRSKTPKNQEALRMASVAENSSSDQRQACKKHELYVSFRDLGWQDWILAPEGYAAYYCEGECAFPLNSYMNATNHAIVQTLVHFINPETVPKPCCAPTQLNAISVLYFDDSSNVILKKYRNMVVRACGCH"
  Endpoint result: "0.92 relative to wild type"
- Binder: "BMP-7 variant F73S (ligand, In conditioned media; numbering on mature BMP-7) STGGKQRSQNRSKTPKNQEALRMASVAENSSSDQRQACKKHELYVSFRDLGWQDWIIAPEGYAAYYCEGECASPLNSYMNATNHAIVQTLVHFINPETVPKPCCAPTQLNAISVLYFDDSSNVILKKYRNMVVRACGCH"
  Endpoint result: "0.9 relative to wild type"
- Binder: "BMP-7 variant Y44T (ligand, In conditioned media; numbering on mature BMP-7) STGGKQRSQNRSKTPKNQEALRMASVAENSSSDQRQACKKHELTVSFRDLGWQDWIIAPEGYAAYYCEGECAFPLNSYMNATNHAIVQTLVHFINPETVPKPCCAPTQLNAISVLYFDDSSNVILKKYRNMVVRACGCH"
  Endpoint result: "1.09 relative to wild type"

Please look at the following binder next.
Problem: Requested read-out: BMPRIa binding (relative to wild type = 1.0). Entry: BMP-7 variant W55R (ligand, In conditioned media; numbering on mature BMP-7) STGGKQRSQNRSKTPKNQEALRMASVAENSSSDQRQACKKHELYVSFRDLGWQDRIIAPEGYAAYYCEGECAFPLNSYMNATNHAIVQTLVHFINPETVPKPCCAPTQLNAISVLYFDDSSNVILKKYRNMVVRACGCH
Result: 1.75 relative to wild type
